Sourced from patent US20250170248A1

Biological target: SMARCA2 (Homo sapiens)
Sequence (P51531 whole entry): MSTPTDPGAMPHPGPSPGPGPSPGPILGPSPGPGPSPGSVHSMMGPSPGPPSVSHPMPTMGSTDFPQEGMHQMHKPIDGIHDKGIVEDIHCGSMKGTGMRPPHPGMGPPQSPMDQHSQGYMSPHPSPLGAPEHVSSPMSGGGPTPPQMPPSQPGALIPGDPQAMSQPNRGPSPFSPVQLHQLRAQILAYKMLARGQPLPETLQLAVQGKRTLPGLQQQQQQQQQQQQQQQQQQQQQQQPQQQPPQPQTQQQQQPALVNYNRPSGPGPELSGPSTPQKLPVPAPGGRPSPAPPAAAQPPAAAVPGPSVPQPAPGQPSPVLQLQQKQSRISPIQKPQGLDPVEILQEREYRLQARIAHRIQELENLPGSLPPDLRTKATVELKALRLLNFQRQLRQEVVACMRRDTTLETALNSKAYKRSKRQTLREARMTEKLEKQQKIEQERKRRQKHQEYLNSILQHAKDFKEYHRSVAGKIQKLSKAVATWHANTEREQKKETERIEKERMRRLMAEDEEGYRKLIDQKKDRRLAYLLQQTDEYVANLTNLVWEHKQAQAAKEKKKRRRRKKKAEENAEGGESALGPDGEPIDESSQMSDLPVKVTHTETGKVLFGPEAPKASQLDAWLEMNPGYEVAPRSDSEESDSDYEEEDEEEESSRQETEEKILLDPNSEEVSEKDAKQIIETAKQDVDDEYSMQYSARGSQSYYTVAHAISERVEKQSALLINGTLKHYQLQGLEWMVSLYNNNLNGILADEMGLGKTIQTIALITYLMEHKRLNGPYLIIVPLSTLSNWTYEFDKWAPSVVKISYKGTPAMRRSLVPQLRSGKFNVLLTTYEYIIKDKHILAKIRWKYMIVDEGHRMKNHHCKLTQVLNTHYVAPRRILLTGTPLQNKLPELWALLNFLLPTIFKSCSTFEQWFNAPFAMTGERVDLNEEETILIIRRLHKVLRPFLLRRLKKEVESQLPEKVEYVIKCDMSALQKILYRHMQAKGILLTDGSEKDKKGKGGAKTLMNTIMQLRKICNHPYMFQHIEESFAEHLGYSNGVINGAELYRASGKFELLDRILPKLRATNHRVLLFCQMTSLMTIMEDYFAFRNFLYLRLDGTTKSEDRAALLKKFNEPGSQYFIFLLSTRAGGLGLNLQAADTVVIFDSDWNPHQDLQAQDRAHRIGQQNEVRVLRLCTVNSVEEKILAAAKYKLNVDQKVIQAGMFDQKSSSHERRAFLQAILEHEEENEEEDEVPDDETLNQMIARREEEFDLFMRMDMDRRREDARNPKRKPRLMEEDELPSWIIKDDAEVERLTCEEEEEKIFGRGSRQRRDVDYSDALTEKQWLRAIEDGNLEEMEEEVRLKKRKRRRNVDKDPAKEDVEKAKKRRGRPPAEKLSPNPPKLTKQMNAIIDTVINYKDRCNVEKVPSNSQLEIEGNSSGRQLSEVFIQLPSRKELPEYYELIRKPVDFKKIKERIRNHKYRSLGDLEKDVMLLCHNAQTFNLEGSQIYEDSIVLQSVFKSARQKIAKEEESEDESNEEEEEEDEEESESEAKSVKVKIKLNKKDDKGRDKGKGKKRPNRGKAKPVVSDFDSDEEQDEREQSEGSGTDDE
Experiment: SMARCA2 Western blot degradation in MV4-11 cells
Type: cell-based
Parameters: SMARCA2/SMARCA4 protein degradation selectivity in MV4-11 cells; endogenous in cells; host or cells: MV4-11
Conditions: MV4-11 cells, 24 h; read-out: SMARCA2 MSD MV411 degradation 24 h: Mean external-Abs DC50
RECORDED_ENDPOINT: DC50

q: Provide DC50 value for the following compound: `C#Cc1ccc(CNC(=O)[C@@H]2C[C@@H](O)CN2C(=O)[C@@H](NC(=O)N2CCN(C3CC4(CCN(c5cnc(N6CCN7c8cc(-c9ccccc9O)nnc8NC[C@H]7C6)nc5)CC4)C3)CC2)C(C)(C)C)cc1`
a: 0.001 to 0.01 µM

q: Output DC50 of C#CCOc1cc(C(C(=O)N2C[C@H](O)C[C@H]2C(=O)NCc2ccc(-c3scnc3C)cc2O[C@H]2CC[C@@H](N3CCC(c4cnc(N5CCc6[nH]c7nnc(-c8ccccc8O)cc7c6[C@H]5C)nc4)CC3)CC2)C(C)C)on1 (single isomer, unassigned)
a: < 0.001 µM

q: Please indicate DC50 recorded for `C#Cc1ccc(CNC(=O)[C@@H]2C[C@@H](O)CN2C(=O)[C@@H](NC(=O)N2CC3(CC(N4CCC(c5cnc(N6CCc7[nH]c8nnc(-c9ccccc9O)cc8c7[C@H]6C)s5)CC4)C3)C2)C(C)(C)C)cc1`
a: 0.001 to 0.01 µM

q: Identify measured DC50 associated with `CC#Cc1ccc(CNC(=O)[C@@H]2C[C@@H](O)CN2C(=O)[C@@H](NC(=O)N2CC3(CC(N4CCC(c5cnc(N6CCc7[nH]c8nnc(-c9ccccc9O)cc8c7[C@H]6C)nc5)CC4)C3)C2)C(C)(C)C)c(OC)c1`
a: 0.01 to 0.1 µM

q: Kindly indicate its recorded DC50. Item: C#Cc1ccc(CNC(=O)[C@@H]2C[C@@H](O)CN2C(=O)[C@@H](NC(=O)[C@H]2CCC3(CC2)C[C@H](N2CCC(c4cnc(N5CCN6c7cc(-c8ccccc8O)nnc7NC[C@H]6C5)nc4)CC2)C3)C(C)(C)C)cc1 (single isomer, unassigned) [I-26]
a: 0.001 to 0.01 µM

q: Please give measured DC50 of the following entry: Cc1cc(Cl)ccc1C#CCNC(=O)[C@@H]1C[C@@H](O)CN1C(=O)[C@@H](NC(=O)[C@H]1CCC2(CC1)C[C@H](N1CCC(c3cnc(N4CCN5c6cc(-c7ccccc7O)nnc6NC[C@H]5C4)nc3)CC1)C2)C(C)(C)C (single isomer, unassigned) [I-104]
a: > 0.1 µM

q: Supply reported DC50 belonging to this compound: `C#Cc1ccc(CNC(=O)[C@@H]2C[C@@H](O)CN2C(=O)[C@@H](NC(=O)N2CC3(CC(N4CCC([C@H]5CC[C@@H](N6CCc7[nH]c8nnc(-c9ccccc9O)cc8c7[C@H]6C)CC5)CC4)C3)C2)C(C)(C)C)cc1`
a: 0.01 to 0.1 µM

q: Let me know recorded DC50 for C#Cc1ccc(CNC(=O)[C@@H]2C[C@@H](O)CN2C(=O)[C@@H](NC(=O)[C@H]2CCC3(CC2)C[C@H](N2CCN(c4cnc(N5CCN6c7cc(-c8ccccc8O)nnc7NC[C@H]6C5)nc4)CC2)C3)C(C)(C)C)cc1 (single isomer, unassigned) [I-170] , thanks.
a: 0.001 to 0.01 µM
